Each record here notes measured IC50 value (M), P3X63 cytotoxicity, MOI 12.
target: PcrV of P. aeruginosa strain PA103 (on TTSS-induced bacteria) (Pseudomonas aeruginosa strain PA103); assay: cell-based or functional assay
measured-quantity: IC50 value (M), P3X63 cytotoxicity, MOI 12

binder: Nanobody 261 (5H01-40GS-2B10) (VHH) EVQLVESGGGLVQPGGSLRLSCAASGSTLDYYAIGWFRQAPGKEREGVSCTSNSGSTYYGGSVKGRFTASRDNAKNTVYLQMNSLRPEDTAVYYCVATIGCATLGGTLDVQRYYYRGQGTLVTVSSGGGGSGGGGSGGGGSGGGGSGGGGSGGGGSGGGGSGGGGSEVQLVESGGGLVQPGGSLRLSCAASGSIFSINNMGWYRQAPGKQRELVTVVTSNLITTYADSVKGRFTISRDNAKNTVYLQMNSLKPEDTAVYYCNAWARSVGSVPYSQFWGQGTLVTVSS
recorded-value: 4.8e-10 M

binder: Nanobody 275 (2G09-40GS-5H01) (VHH) EVQLVESGGGLVQPGGSLRLSCAASGSFGDNYELYAMTWFRQAPGERRDFVASVTGDGSTSYADSVKDRFTISRDNAKKLMYLQMNSLKPEDTAVYYCRLLNYWGQGTLVTVSSGGGGSGGGGSGGGGSGGGGSGGGGSGGGGSGGGGSGGGGSEVQLVESGGGLVQPGGSLRLSCAASGSTLDYYAIGWFRQAPGKEREGVSCTSNSGSTYYGGSVKGRFTASRDNAKNTVYLQMNSLRPEDTAVYYCVATIGCATLGGTLDVQRYYYRGQGTLVTVSS
recorded-value: 3.7e-09 M

binder: Nanobody 319 (13F07-40GS-6B05) (VHH) EVQLVESGGGLVQAGGSLRLSCAASGNTFSTNPMYWYRQAEGKQRELVASISSRGITNYADSVRGRFSISRDNTKDTVYLQMNSLKPEDTAVYYCRLASLSSGTVYWGKGTLVTVSSGGGGSGGGGSGGGGSGGGGSGGGGSGGGGSGGGGSGGGGSEVQLVESGGGLVQPGGSLRLSCAASGSIFSINTMGWYRQAPGKQRELVSTITSNLVPHYADSVQGRFTISRDNARNTVYLQMNSLKPQDTAHYYCNAWARSSGATPYTNYWGQGTLVTVSS
recorded-value: 8.1e-11 M

binder: Nanobody 271 (7C10-40GS-14E10) (VHH) EVQLVESGGGLVQAGGSLRLSCTASGRTLSSYTMGWFRQAPGTEREFVAAMTRSGFNTYYADSVKGRFTISRDSTENTMALQMSSLKPEDTAVYYCTAGRGLTSYRADYWGQGTLVTVSSGGGGSGGGGSGGGGSGGGGSGGGGSGGGGSGGGGSGGGGSEVQLVESGGGLVQPGGSLRLSCAASGRIFSINTMGWYRQAPGKQRELVAGVTINAITNYADSVKGRFTISRDNAKNTVWLQMNSLKPEDTAVYYCHAWARSSGSAPYSQNWGQGTLVTVSS
recorded-value: 5.9e-10 M
